This listing pairs molecules with measured melting point.

See these solved cases before continuing.
Cl.O=C(Nc1cnccc1OCCOCCN1CCCC1)C1=C(O)CCn2c1nc1ccccc12
55 to 65 °C
Cl.O=C(Nc1cnccc1OCCN1CCCCC1)C1=C(O)CCn2c1nc1ccccc12
225 to 230 °C
Cl.O=C(Nc1cnccc1OCCCN1CCCC1)C1=C(O)CCn2c1nc1ccccc12
60 to 68 °C
CCNCCOc1ccc(NC(=O)C2=C(O)CCn3c2nc2ccccc23)cc1.Cl
60 to 65 °C
Cl.O=C(Nc1cnccc1OCCN1CCCC1)C1=C(O)CCn2c1nc1ccccc12
170 to 174 °C

Look at this molecule and give its reported melting point. Cl.O=C(Nc1ccc(OCCN2CCCC2)cc1)C1=C(O)CCn2c1nc1ccccc12 130 to 142 °C

###

reportedProperty: melting point

See these solved cases before continuing.
CN(C)CCN1C2=C(C(=O)NCc3ccccc3Cl)C(=O)CCN2c2ccccc21
138 to 140 °C
CCN(CC)CCOc1ccncc1NC(=O)C1=C(O)CCn2c1nc1ccccc12.Cl
175 to 178 °C

Kindly review the next compound as well.
Look at this compound and give its reported melting point. Cc1ccc(CNC(=O)C2=C3N(CCC2=O)c2ccccc2N3CCN(C)C)cc1 120 to 122 °C
